Biological target: human KDR kinase (Homo sapiens)
Construct: purchased Carna 08-191
Sequence (P35968 20-1356): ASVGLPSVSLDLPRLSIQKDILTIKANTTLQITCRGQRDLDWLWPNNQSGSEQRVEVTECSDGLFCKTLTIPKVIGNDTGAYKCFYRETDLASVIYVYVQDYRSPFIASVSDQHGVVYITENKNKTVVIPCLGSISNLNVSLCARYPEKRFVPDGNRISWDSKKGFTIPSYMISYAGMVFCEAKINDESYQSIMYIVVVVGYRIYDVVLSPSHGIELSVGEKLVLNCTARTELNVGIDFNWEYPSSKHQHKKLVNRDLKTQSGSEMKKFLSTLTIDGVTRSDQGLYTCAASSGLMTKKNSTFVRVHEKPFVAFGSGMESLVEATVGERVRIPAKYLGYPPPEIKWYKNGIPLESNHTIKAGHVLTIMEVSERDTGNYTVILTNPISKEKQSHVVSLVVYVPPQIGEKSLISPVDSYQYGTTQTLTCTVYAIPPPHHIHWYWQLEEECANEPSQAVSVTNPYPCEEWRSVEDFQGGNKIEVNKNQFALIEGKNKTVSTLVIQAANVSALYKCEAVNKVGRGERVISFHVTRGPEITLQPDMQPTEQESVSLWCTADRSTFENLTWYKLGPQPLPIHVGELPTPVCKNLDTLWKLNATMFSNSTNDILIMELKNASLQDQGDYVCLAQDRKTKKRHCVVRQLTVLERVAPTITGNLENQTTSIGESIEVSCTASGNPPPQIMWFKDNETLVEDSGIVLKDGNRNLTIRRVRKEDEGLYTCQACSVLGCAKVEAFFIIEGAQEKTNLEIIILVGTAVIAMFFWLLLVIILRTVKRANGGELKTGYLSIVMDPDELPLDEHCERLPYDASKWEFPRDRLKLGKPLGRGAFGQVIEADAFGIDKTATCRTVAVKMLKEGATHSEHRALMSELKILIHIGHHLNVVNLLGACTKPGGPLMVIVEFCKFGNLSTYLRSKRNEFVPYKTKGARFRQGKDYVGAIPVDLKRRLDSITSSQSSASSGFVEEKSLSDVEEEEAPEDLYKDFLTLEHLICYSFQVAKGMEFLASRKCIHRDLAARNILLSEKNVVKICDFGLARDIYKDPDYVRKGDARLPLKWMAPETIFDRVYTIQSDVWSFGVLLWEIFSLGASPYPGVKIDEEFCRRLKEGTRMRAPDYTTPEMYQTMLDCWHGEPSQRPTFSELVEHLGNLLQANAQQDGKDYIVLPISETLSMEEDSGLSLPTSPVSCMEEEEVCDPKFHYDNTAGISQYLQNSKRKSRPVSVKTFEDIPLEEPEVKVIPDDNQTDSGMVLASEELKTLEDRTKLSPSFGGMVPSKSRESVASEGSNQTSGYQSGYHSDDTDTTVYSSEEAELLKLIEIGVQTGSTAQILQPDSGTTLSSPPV
Test: KDR Kinase Assay (LanthaScreen TR-FRET enzymatic assay)
Assay type: biochemical
Conditions: 1.2 nM KDR, 92 μM ATP
pIC50: −log10 of the molar value.
Record form. Attribute: pIC50. Fill in for each entry.

The examples below pair each entry with its known result.
Cn1cc(-c2cc(-c3ccc(N4C[C@@H]5[C@H](C4)[C@H]5NC(=O)C(N)c4ccccc4)nc3)c3c(C#N)cnn3c2)cn1 (stereo partly drawn) : < 7.00
Cn1ccc(-c2cc(-c3ccc(N4C[C@@H]5C[C@@](C)(NS(=O)(=O)c6c(F)cccc6Cl)C[C@@H]5C4)nc3)c3c(C#N)cnn3c2)n1 : 7.30 to 8.00
CCOc1cc(-c2ccc(N3C[C@H]4CN(C(=O)c5ncccc5Cl)C[C@H]4C3)nc2)c2c(C#N)cnn2c1 : < 7.00

# batch size: 3; output pIC50 per entry
1. CC(O)COc1cc(-c2ccc(N3C[C@@H]4[C@@H](CNC(=O)c5ncccc5Cl)[C@@H]4C3)nc2)c2c(C#N)cnn2c1 (stereo partly drawn)
2. Cn1ccc(-c2cc(-c3ccc(N4C[C@@H]5[C@H](C4)[C@H]5NC(=O)c4ncccc4Cl)nc3)c3c(C#N)cnn3c2)n1
3. Cn1ccc(-c2cc(-c3cnc(N4C[C@@H]5C[C@@](C)(NC(=O)c6ncccc6Cl)C[C@@H]5C4)cn3)c3c(C#N)cnn3c2)n1

< 7.00
7.30 to 8.00
7.30 to 8.00
